Below is a list of entries, each paired with its recorded log10(IC50) value.
experimental.system: HCV NS5B polymerase (NS5BΔCT21) (Hepatitis C virus genotype 1b)
Construct: A soluble C-terminal 21-amino acid truncated NS5B enzyme form; polyhistidine (C)
protocol.details: HCV NS5B Polymerase Inhibition Assay
Please note: log10 values; quantity IC50; unit µM.

Sample records with log10(IC50):
smiles.entry	log10(IC50)
Cc1csc(N2CCN(c3cc(C(C)C)ccc3NC(=O)c3cccnc3)CC2)n1	1.18
CC(C)(C)c1ccc(NC(=O)c2cccnc2)c(N2CCN(c3cnccn3)CC2)c1	0.48

log10(IC50) measured on Cc1ncccc1C(=O)Nc1ccc(C(C)C)cc1N1CCN(c2cnccn2)CC1 = -0.28

log10(IC50) measured on Cc1ncccc1C(=O)Nc1ccc(C(C)C)cc1N1CCN(c2ncnc3ccsc23)CC1 = -1.85

log10(IC50) measured on CC(C)c1ccc(NC(=O)c2cccnc2)c(N2CCN(c3ccccn3)CC2)c1 = 0.86

log10(IC50) measured on O=C(Nc1ccc(-c2ccccc2)cc1N1CCN(c2cnccn2)CC1)c1cccnc1 = 0.90

log10(IC50) measured on CC(C)c1ccc(NC(=O)c2cccc(O)n2)c(N2CCN(c3cnccn3)CC2)c1 = 1.66
